- experiment_summary: NCI Yeast Anticancer Drug Screen. Data for the mec2-1 strain (AID 157)
- cond: S. cerevisiae mec2-1 strain, at 3.7 µM, active compounds read high
About 79,000 compounds went through this panel and 15% of them were active in at least one assay; those are over-represented in the sample as a whole. Activity calls are given as the source filed them. Cut-off read from the data, not from the text of the source: active = growth inhibition above about 70%; inactive = the rest.
readout_label: growth inhibition

Entry "O=C1c2ccc(O)cc2C(=O)c2c(O)ccc(O)c21" ; growth inhibition = 28% (inactive)

get_value(item= "O=C1C=CC(=Nc2ccc3c(c2)Cc2cc(Cl)ccc2-3)O1" , readout=growth inhibition) returns 19% (inactive)

// sample "Nc1ccc2ncc(Nc3ccc(Cl)c(Cl)c3)nc2c1" , its growth inhibition was -16% (inactive)

The compound "Cc1nc2ccccc2c(=O)n1NC(=O)c1ccc(CS)cc1" showed growth inhibition equal to -4% (inactive)

Short answer for "BrC/C=C/C[P+](c1ccccc1)(c1ccccc1)c1ccccc1" : growth inhibition was 12% (inactive)

Please fill in: growth inhibition reported for "Clc1ccc(C(c2ccc(Cl)cc2)N2CCNCC2)cc1" = -19% (inactive)

Kindly note the recorded growth inhibition for O=C1C(C(O)(C(F)(F)F)C(F)(F)F)CCC1C(O)(C(F)(F)F)C(F)(F)F (stereo unspecified) , which is 8% (inactive)

Memo: "CC[C@@]1(OC(=O)CN(C)C)C(=O)OCc2c1cc1n(c2=O)Cc2cc3ccccc3nc2-1" , reported growth inhibition: 23% (inactive)

Looking up CCC1SC(=S)N(c2ccc(Cl)cc2)C1=O (stereo unspecified) , I found its growth inhibition recorded as -5% (inactive)

Reported growth inhibition of "Cc1cc(NC(=S)SCc2ccc(Cl)cc2)ccc1Cl" : 6% (inactive)

Sample CCCCCCCCCCCCOC1C(COCCN2CCCC2)OC2OC(C)(C)OC21 (stereo unspecified) ; growth inhibition observed: 11% (inactive)

From: PubChem BioAssay (NCI)
